Molecular target: recombinant guinea pig liver TGase (Cavia cutleri (Guinea pig))
Assay: biochemical
Format: biochemical
Conditions: read-out: IC50
Binary call on IC50 with cut-off 40 µM: strictly below means Satisfied, and equality or higher means Not satisfied.

Is IC50 strictly under 40 µM for the entry CC(c1ccccc1)n1cc(C(=O)/C=C/c2ccc([N+](=O)[O-])cc2)nn1 (stereo not shown) [Compound 4k] ?
Satisfied

Just wondering, is IC50 of O=C(/C=C/c1ccc([N+](=O)[O-])cc1)c1cn(Cc2ccccc2)nn1 [Compound 4a] below 40 µM?
Satisfied

Threshold test, IC50 < 40 µM: O=C(/C=C/c1ccc([N+](=O)[O-])cc1)c1c[nH]nn1 [Compound 4o]
Not satisfied

is_below(IC50, 40 µM) for O=C(/C=C/c1ccc([N+](=O)[O-])cc1)c1cn(CC2CCCCC2)nn1 [Compound 4f] ?
Satisfied

Just wondering, is IC50 of O=C(/C=C/c1ccc([N+](=O)[O-])cc1)c1cn(C2CCCC2)nn1 [Compound 4c] below 40 µM?
Not satisfied

Quick check: IC50 of O=C(/C=C/c1ccc([N+](=O)[O-])cc1)c1cc2ccccc2oc1=O [Compound 28a] under 40 µM?
Not satisfied

is_below(IC50, 40 µM) for O=C(/C=C/c1ccc([N+](=O)[O-])cc1)c1cn(C(c2ccccc2)c2ccccc2)nn1 [Compound 4l] ?
Not satisfied

Say whether its IC50 is strictly beneath 40 µM. Entry: O=C(C=Cc1ccc([N+](=O)[O-])cc1)N(Cc1ccccc1)Cc1ccccc1 [Compound 26a, p-Nitrocinnamoyl dibenzyl amide]
Not satisfied

Dear reviewer, please state whether O=C(/C=C/c1ccc([N+](=O)[O-])cc1)c1cn(Cc2ccccn2)nn1 [Compound 4e] has IC50 strictly beneath 40 µM.
Satisfied

* * *

Target: recombinant guinea pig liver TGase (Cavia cutleri (Guinea pig), UniProt P08587)
Sequence (P08587 whole entry): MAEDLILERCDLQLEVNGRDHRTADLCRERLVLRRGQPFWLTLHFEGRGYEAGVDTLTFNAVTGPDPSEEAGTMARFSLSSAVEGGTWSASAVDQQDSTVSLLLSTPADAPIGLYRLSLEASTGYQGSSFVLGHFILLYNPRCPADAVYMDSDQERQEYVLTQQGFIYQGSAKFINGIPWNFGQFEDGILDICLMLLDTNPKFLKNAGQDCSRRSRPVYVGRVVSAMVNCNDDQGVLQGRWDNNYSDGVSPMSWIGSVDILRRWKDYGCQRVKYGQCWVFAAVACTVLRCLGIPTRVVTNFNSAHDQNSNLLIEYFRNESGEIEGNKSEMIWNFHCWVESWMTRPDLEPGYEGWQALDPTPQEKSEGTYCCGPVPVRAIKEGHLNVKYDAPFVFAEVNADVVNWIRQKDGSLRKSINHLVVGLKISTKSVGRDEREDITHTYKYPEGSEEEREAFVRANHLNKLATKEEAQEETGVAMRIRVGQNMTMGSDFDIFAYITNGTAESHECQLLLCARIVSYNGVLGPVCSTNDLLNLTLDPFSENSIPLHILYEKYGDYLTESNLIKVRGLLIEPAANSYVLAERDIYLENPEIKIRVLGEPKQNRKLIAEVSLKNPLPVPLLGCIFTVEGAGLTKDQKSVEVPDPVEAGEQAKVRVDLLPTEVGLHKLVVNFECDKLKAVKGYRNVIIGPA
Assay: biochemical
Type: biochemical
Settings: Table 3, influence of the acylated moiety; read-out: IC50 (μM), class symbol
Answer each item with its documented IC50.

Let me know recorded IC50 for O=C(C=Cc1ccc([N+](=O)[O-])cc1)On1nnc2cccnc21 [Compound 16a] , thanks.
20 to 50 µM

Give reported IC50 value for O=C(C=Cc1ccc([N+](=O)[O-])cc1)On1nnc2ccccc21 [Compound 14a, p-Nitrocinnamoyl oxybenzotriazolyl amide]
20 to 50 µM

Provide IC50 value for the following compound: O=C(/C=C/c1ccc([N+](=O)[O-])cc1)Nc1cccc2ccccc12 [Compound 23a, p-Nitrocinnamoyl naphtalenyl amide]
> 50 µM

* * *

Target: recombinant guinea pig liver TGase (Cavia cutleri (Guinea pig), UniProt P08587)
Test: biochemical
Type: biochemical
Conditions: Table 1, value in brackets; read-out: IC50
MEASURED ENDPOINT: IC50

Input O=C(/C=C/c1ccc(Cl)cc1)n1nnc2ccccc21 [Compound 15k, p-Chlorocinnamoyl benzotriazolyl amide] , output reported IC50.
> 100 µM

Respond only with IC50 recorded for COc1ccc(/C=C/C(=O)n2nnc3ccccc32)cc1 [Compound 15d, p-Methoxycinnamoyl benzotriazolyl amide]
> 100 µM

Kindly indicate its recorded IC50. Item: COc1cccc(/C=C/C(=O)n2nnc3ccccc32)c1 [Compound 15e, m-Methoxycinnamoyl benzotriazolyl amide]
> 100 µM

* * *

Biological target: recombinant guinea pig liver TGase (Cavia cutleri (Guinea pig), UniProt P08587)
Assay: biochemical
Type: biochemical
Conditions: Table 1, substituent on the cinnamoyl aromatic group; read-out: IC50 (μM), class symbol
MEASURED ENDPOINT: IC50

State IC50 on recombinant guinea pig liver TGase (Cavia cutleri (Guinea pig), UniProt P08587). Entry: O=C(C=Cc1cccc(Cl)c1)On1nnc2ccccc21 [Compound 14l]
20 to 50 µM

Report its IC50 with recombinant guinea pig liver TGase (Cavia cutleri (Guinea pig), UniProt P08587) as the test system: O=C(/C=C/c1ccc([N+](=O)[O-])cc1)n1nnc2ccccc21 [Compound 15a, p-Nitrocinnamoyl benzotriazolyl amide]
> 50 µM

Answer with IC50 of Nc1ccc(/C=C/C(=O)c2cccnc2)cc1 [Compound 30r] measured for recombinant guinea pig liver TGase (Cavia cutleri (Guinea pig), UniProt P08587).
> 50 µM

Quote recombinant guinea pig liver TGase (Cavia cutleri (Guinea pig), UniProt P08587) IC50 for entry Cc1cccc(/C=C/C(=O)n2nnc3ccccc32)c1 [Compound 15h, m-Methylcinnamoyl benzotriazolyl amide] .
> 50 µM

Report its IC50 with recombinant guinea pig liver TGase (Cavia cutleri (Guinea pig), UniProt P08587) as the test system: Cc1ccccc1/C=C/C(=O)n1nnc2ccccc21 [Compound 15i, o-Methylcinnamoyl benzotriazolyl amide]
> 50 µM

Write down the reported IC50 (system: recombinant guinea pig liver TGase (Cavia cutleri (Guinea pig), UniProt P08587)) of COc1ccccc1/C=C/C(=O)n1nnc2ccccc21 [Compound 15f, o-Methoxycinnamoyl benzotriazolyl amide]
> 50 µM

For recombinant guinea pig liver TGase (Cavia cutleri (Guinea pig), UniProt P08587), give the measured IC50 of the entry CC(C)(C)OC(=O)Nc1ccc(C=CC(=O)n2nnc3ccccc32)cc1 [Compound 15n]
< 20 µM

Check recombinant guinea pig liver TGase (Cavia cutleri (Guinea pig), UniProt P08587) data and give IC50 for O=C(/C=C/c1ccc(Cl)cc1)n1nnc2ccccc21 [Compound 15k, p-Chlorocinnamoyl benzotriazolyl amide] .
> 50 µM
